pKd for assorted compounds
tested_on: CSF1R (Homo sapiens)
Sequence (P07333 20-972): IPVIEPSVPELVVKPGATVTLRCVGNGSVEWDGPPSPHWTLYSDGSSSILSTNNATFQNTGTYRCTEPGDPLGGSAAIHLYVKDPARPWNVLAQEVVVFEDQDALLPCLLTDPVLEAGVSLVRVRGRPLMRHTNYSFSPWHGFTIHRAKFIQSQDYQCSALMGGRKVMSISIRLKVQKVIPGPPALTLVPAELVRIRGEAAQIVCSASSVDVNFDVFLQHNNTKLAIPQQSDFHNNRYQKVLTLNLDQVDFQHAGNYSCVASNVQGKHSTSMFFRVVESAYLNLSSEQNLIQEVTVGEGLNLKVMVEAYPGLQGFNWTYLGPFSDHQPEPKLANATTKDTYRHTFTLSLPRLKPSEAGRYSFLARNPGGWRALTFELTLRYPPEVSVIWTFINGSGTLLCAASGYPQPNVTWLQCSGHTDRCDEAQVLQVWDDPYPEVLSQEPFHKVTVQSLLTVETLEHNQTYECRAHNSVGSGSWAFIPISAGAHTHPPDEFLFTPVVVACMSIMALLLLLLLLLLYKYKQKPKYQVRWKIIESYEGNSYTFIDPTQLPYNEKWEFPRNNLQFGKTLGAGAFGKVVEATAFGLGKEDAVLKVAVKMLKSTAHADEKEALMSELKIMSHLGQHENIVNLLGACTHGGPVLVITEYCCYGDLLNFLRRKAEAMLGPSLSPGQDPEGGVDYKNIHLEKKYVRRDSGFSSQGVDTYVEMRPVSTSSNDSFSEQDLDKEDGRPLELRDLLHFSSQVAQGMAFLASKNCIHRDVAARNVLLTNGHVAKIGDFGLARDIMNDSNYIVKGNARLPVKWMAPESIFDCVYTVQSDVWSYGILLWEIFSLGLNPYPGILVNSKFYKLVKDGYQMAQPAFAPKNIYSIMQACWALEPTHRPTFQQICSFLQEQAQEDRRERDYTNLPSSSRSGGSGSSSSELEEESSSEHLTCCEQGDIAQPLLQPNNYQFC
method_notes: Competition binding assay, CSF1R Kd
Set-up: made in house
pKd: −log10 of the molar value.

compound	tested_on	readout_kind	result
CSCc1cnc2c(c1)ncn2Cc1ccc2nc(N[C@@H]3CCCC[C@H]3O)sc2c1 [Example 86]	CSF1R (Homo sapiens)	pKd	7.70 to 8.30
COc1cc2ncn(Cc3ccc4nc(N[C@@H]5CCCCC5O)sc4c3)c2cc1OC (stereo in doubt) [Example 2]	CSF1R (Homo sapiens)	pKd	7.70 to 8.30

Enquiry: Note pKd for the compound shown: COc1cc2ncn(Cc3ccc4nc(N[C@@H]5CCCC[C@H]5O)sc4c3)c2cc1C#N [Example 53]
Return: 7.70 to 8.30

Enquiry: For the compound COc1cc2ncn(Cc3ccc4nc(NCC5CCCCC5)oc4c3)c2cc1OC [Example 35] , give its reported pKd.
Return: ≥ 8.30

Enquiry: Item O[C@@H]1CCCC[C@H]1Nc1nc2ccc(Cn3cnc4cc(C5CC5)cnc43)cc2s1 [Example 45] : provide pKd
Return: ≥ 8.30
